A compilation of published IC50 results with Oxysterols receptor LXR-alpha (Homo sapiens, UniProt Q13133).

[[record]]
entry_smiles = "CC(C)c1nc2c(C(F)(F)F)cccn2c1-c1ccc(-c2ccc(S(C)(=O)=O)cc2)cc1"
measurement_name = "IC50"
measured_result = "> 1000 nM"


# input Sample `Cc1nc2cccc(C(F)(F)F)c2nc1-c1ccc(-c2cccc(S(C)(=O)=O)c2)cc1` — what was its IC50?
# output > 1000 nM

# input Sample `CS(=O)(=O)c1cccc(COc2ccc(-n3c(C(F)(F)F)nc4c(C(F)(F)F)cccc43)cc2)c1` — what was its IC50?
# output > 1000 nM

====

A compilation of published log10 IC50 results with Oxysterols receptor LXR-alpha (Homo sapiens, UniProt Q13133).
In plain terms, each number is the log10 of measured IC50 in nM.

[[record]]
entry_smiles = "CCS(=O)(=O)c1cc(F)cc(Oc2ccc(Cl)c(-n3c(C)nc4c(Cl)cccc43)c2)c1"
target_entity = "Oxysterols receptor LXR-alpha (Homo sapiens, UniProt Q13133)"
measured_result = 3.30

[[record]]
entry_smiles = "Cc1ccc(C(=O)O)cc1NCc1cccc(-c2c(Cc3ccccc3)cnc3c(C(F)(F)F)cccc23)c1"
target_entity = "Oxysterols receptor LXR-alpha (Homo sapiens, UniProt Q13133)"
measured_result = 3.48

[[record]]
entry_smiles = "CCS(=O)(=O)c1cccc(Oc2ccc(Cl)c(-c3nc4c(C(F)(F)F)cccc4nc3C)c2)c1"
target_entity = "Oxysterols receptor LXR-alpha (Homo sapiens, UniProt Q13133)"
measured_result = 2.56

[[record]]
entry_smiles = "CN(Cc1ccc(-c2cccc(S(C)(=O)=O)c2)s1)S(=O)(=O)c1ccccc1C(F)(F)F"
target_entity = "Oxysterols receptor LXR-alpha (Homo sapiens, UniProt Q13133)"
measured_result = 4.47

[[record]]
entry_smiles = "CCc1nc2c(C#N)cccn2c1-c1cccc(Oc2cccc(S(C)(=O)=O)c2)c1"
target_entity = "Oxysterols receptor LXR-alpha (Homo sapiens, UniProt Q13133)"
measured_result = 3.43

[[record]]
entry_smiles = "CCS(=O)(=O)c1cccc(Oc2cccc(-c3c(C(C)C)nc4c(C#N)cccn34)c2)c1"
target_entity = "Oxysterols receptor LXR-alpha (Homo sapiens, UniProt Q13133)"
measured_result = 3.27

[[record]]
entry_smiles = "O=C(O)c1c[nH]c2c(NCc3cccc(-c4c(Cc5ccccc5)cnc5c(C(F)(F)F)cccc45)c3)cccc12"
target_entity = "Oxysterols receptor LXR-alpha (Homo sapiens, UniProt Q13133)"
measured_result = 2.90

[[record]]
entry_smiles = "Cc1nc(-c2cc(Oc3cccc(S(=O)(=O)CCCC#N)c3)ccc2Cl)c2cccc(C(F)(F)F)c2n1"
target_entity = "Oxysterols receptor LXR-alpha (Homo sapiens, UniProt Q13133)"
measured_result = 3.35


Continue with the compound presented below.
# input Short answer please: log10 IC50, Oxysterols receptor LXR-alpha (Homo sapiens, UniProt Q13133), entry `CCS(=O)(=O)c1cccc(Oc2ccc(-n3c(C)nc4c(C(F)(F)F)cccc43)c(C)c2)c1`
# output 3.32

====

A compilation of published IC50 results with Oxysterols receptor LXR-alpha (Homo sapiens).
// return numeric value only (unit: µM, not printed)

As a guide, the following entries are already answered.
[[record]]
molecule = "Cc1nc2c(Cl)cccc2n1-c1cc(Oc2ccccc2S(C)(=O)=O)ccc1Cl"
measured_result = 2.5

[[record]]
molecule = "O=C(O)C1CCN(C(=O)c2ccc(COc3cccc(-c4c(Cc5ccccc5)cnc5c(C(F)(F)F)cccc45)c3)cc2)CC1"
measured_result = 0.178

[[record]]
molecule = "CCS(=O)(=O)N1CC(c2cccc(-c3cccc(S(C)(=O)=O)c3)c2)N(C(C)C)C1=O (centres unmarked)"
measured_result = 5.01

[[record]]
molecule = "CC(C)CN(Cc1cc(-c2cncc(S(C)(=O)=O)c2)cs1)S(=O)(=O)c1ccccc1Cl"
measured_result = 2.53

[[record]]
molecule = "CCc1nc2c(C(F)(F)F)cccn2c1-c1cccc(Oc2cccc(S(=O)(=O)CCCC#N)c2)c1"
measured_result = 0.91


Continue with the molecule presented below.
# input Sample `O=C(O)c1ccc(COc2cccc(-c3c(Cc4ccccc4)cnc4c(C(F)(F)F)cccc34)c2)c(Cl)c1` — what was its IC50?
# output 1.72
